Where these numbers come from: patent US12642857B2

target: UniProt:P31749
Sequence (P31749 whole entry): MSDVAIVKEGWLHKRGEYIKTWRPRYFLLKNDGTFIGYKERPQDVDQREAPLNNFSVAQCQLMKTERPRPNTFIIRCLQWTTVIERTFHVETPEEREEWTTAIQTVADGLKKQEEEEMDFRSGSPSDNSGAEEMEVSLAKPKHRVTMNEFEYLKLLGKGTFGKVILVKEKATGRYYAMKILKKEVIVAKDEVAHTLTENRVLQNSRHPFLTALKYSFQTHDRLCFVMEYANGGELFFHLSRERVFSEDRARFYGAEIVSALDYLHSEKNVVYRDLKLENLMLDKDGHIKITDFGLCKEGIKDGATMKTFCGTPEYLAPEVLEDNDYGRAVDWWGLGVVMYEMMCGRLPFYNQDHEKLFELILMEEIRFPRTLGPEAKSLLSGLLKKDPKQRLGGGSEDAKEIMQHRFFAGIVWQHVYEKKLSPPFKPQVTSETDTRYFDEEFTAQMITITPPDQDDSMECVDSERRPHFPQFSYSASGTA
Entries whose IC50 is below 3 nM take y; entries at or above 3 nM take n.

| compound | assigned.category |
| --- | --- |
| C[C@@H]1C[C@@H](O)c2ncnc(N3CCN(C(=O)[C@H](CNCCOCCNC(=O)COc4cccc5c4C(=O)N(C4CCC(=O)NC4=O)C5=O)c4ccc(Cl)cc4)CC3)c21 (some centres unmarked) | n |
| C[C@@H]1C[C@@H](O)c2ncnc(N3CCN(C(=O)[C@H](CNCCCCCCCCC#Cc4cccc5c4CN(C4CCC(=O)NC4=O)C5=O)c4ccc(Cl)cc4)CC3)c21 (some centres unmarked) | y |
| C[C@@H]1C[C@@H](O)c2ncnc(N3CCN(C(=O)[C@H](CNCCCCCCCCNC(=O)COc4cccc5c4C(=O)N(C4CCC(=O)NC4=O)C5=O)c4ccc(Cl)cc4)CC3)c21 (some centres unmarked) | y |
| Cc1ncsc1-c1ccc([C@H](C)NC(=O)[C@@H]2C[C@@H](O)CN2C(=O)[C@@H](NC(=O)CCOCCCNC[C@@H](C(=O)N2CCN(c3ncnc4c3[C@H](C)CC4)CC2)c2ccc(Cl)cc2)C(C)(C)C)cc1 | y |
| C[C@@H]1C[C@@H](O)c2ncnc(N3CCN(C(=O)[C@H](CNCCOCCOCCNC(=O)COc4cccc5c4C(=O)N(C4CCC(=O)NC4=O)C5=O)c4ccc(Cl)cc4)CC3)c21 (some centres unmarked) | n |
